Provide the recorded pIC50 for the entries that follow.
- Tested on: 997537-175-T-J1-PDC complex spheroid viability
- assay_summary: Anticancer human tumor 997537-175-T-J1-PDC patient-derived colon adenocarcinoma cell line growth inhibition [GQUAD]
- settings: curve of first compound; second compound 1 µM
pIC50: −log10 of the molar value.

# molecule CC[C@@]1(O)C(=O)OCc2c1cc1n(c2=O)Cc2cc3c(CN(C)C)c(O)ccc3nc2-1 + CN(C)c1ccc(Nc2c3ccc(NC(=O)CCN4CCCC4)cc3nc3cc(NC(=O)CCN4CCCC4)ccc23)cc1 ; its pIC50 = < 6.50

Sure, the documented pIC50 for COc1cc(C2c3cc4c(cc3C(OC3OC5COC(C)OC5C(O)C3O)C3COC(=O)C23)OCO4)cc(OC)c1O (stereo not given) + Cc1[nH]c2ccc(F)cc2c1-c1nc2c3cccnc3c3ncccc3c2[nH]1 is < 5.00

Per the records, this molecule ( C#Cc1c(F)ccc2cc(O)cc(-c3ncc4c(N5CC6CCC(C5)N6)nc(OCC56CCCN5CC(F)C6)nc4c3F)c12 (stereo not given) + Cc1cnc(CNC(=O)c2c(=O)c3ccc(N4CCCN(C)CC4)nc3n3c2sc2ccccc23)cn1 ) has pIC50 equal to < 5.00

Sure, the documented pIC50 for Cc1cccc(N(C)C(=O)C2C(O)CCN2c2nc(C)cc(C(F)(F)F)c2C#N)c1 (stereo not given) + Cc1cnc(CNC(=O)c2c(=O)c3ccc(N4CCCN(C)CC4)nc3n3c2sc2ccccc23)cn1 is < 5.00

Briefly, pIC50 measured for COc1cccc2c1C(=O)c1c(O)c3c(c(O)c1C2=O)CC(O)(C(=O)CO)CC3OC1CC(N)C(O)C(C)O1 (stereo not given) + CN(C)c1ccc(Nc2c3ccc(NC(=O)CCN4CCCC4)cc3nc3cc(NC(=O)CCN4CCCC4)ccc23)cc1 : < 5.00

###

- System: 997537-175-T-J1-PDC complex spheroid viability
- assay_summary: Anticancer human tumor 997537-175-T-J1-PDC cell line growth inhibition [GQUAD];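 note: spheroids exposed to the agents for 7 days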;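 for viability, T/C: 100% = DMSO vehicle control viability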
- settings: second compound 0.1 µM; first compound 0.1 µM; stronger effect = lower value
assay_endpoint: viability, T/C (%)
Return type: number; implicit unit %.

The recorded viability, T/C for C#Cc1c(F)ccc2cc(O)cc(-c3ncc4c(N5CC6CCC(C5)N6)nc(OCC56CCCN5CC(F)C6)nc4c3F)c12 (centres undefined) + Cc1[nH]c2ccc(F)cc2c1-c1nc2c3cccnc3c3ncccc3c2[nH]1 is 103

viability, T/C measured on CC(C)(O)C1CCC(Nc2ccc3ncc(-c4cccc(C(F)(F)F)c4)n3n2)CC1 (centres undefined) + Cc1[nH]c2ccc(F)cc2c1-c1nc2c3cccnc3c3ncccc3c2[nH]1 = 103

Lookup result for C=CC(=O)N1CCN(c2nc(=O)n(-c3c(C)ccnc3C(C)C)c3nc(-c4c(O)cccc4F)c(F)cc23)C(C)C1 (centres undefined) + Cc1[nH]c2ccc(F)cc2c1-c1nc2c3cccnc3c3ncccc3c2[nH]1 ; measured viability, T/C: 71.1

For record COc1cccc2c1C(=O)c1c(O)c3c(c(O)c1C2=O)CC(O)(C(=O)CO)CC3OC1CC(N)C(O)C(C)O1 (centres undefined) + Cc1[nH]c2ccc(F)cc2c1-c1nc2c3cccnc3c3ncccc3c2[nH]1 the listed viability, T/C is 78

###

- Test system: 997537-175-T-J1-PDC complex spheroid viability
- assay_summary: Anticancer human tumor 997537-175-T-J1-PDC cell line growth inhibition [GQUAD];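 note: spheroids exposed to the agents for 7 days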
- settings: curve of first compound; second compound 1 µM
Assign IC50 to each entry below.
Unit µM implied. Number only.

Quick note, IC50 for COc1ncnc(C2CC2)c1-c1ncc2cnn(Cc3ccc(-c4nc(C(F)(F)F)cn4C(C)C)cc3)c2n1 + Cc1[nH]c2ccc(F)cc2c1-c1nc2c3cccnc3c3ncccc3c2[nH]1 landed at 9.26

The compound O=C(NO)c1cnc(N2CCN(S(=O)(=O)c3ccc4ccccc4c3)CC2)nc1 + Cc1cnc(CNC(=O)c2c(=O)c3ccc(N4CCCN(C)CC4)nc3n3c2sc2ccccc23)cn1 showed IC50 equal to 1.96
